Biological target: F508delCFTR (Homo sapiens, UniProt P13569, DEL508-508)
Construct: expressed in transfected cells; host or cells: CFBE41o- human lung derived epithelial cells (CFBE41o-F508delCFTR-HRP), doxycycline-inducible
Sequence (P13569 with tags, fused parts or gaps DEL508-508): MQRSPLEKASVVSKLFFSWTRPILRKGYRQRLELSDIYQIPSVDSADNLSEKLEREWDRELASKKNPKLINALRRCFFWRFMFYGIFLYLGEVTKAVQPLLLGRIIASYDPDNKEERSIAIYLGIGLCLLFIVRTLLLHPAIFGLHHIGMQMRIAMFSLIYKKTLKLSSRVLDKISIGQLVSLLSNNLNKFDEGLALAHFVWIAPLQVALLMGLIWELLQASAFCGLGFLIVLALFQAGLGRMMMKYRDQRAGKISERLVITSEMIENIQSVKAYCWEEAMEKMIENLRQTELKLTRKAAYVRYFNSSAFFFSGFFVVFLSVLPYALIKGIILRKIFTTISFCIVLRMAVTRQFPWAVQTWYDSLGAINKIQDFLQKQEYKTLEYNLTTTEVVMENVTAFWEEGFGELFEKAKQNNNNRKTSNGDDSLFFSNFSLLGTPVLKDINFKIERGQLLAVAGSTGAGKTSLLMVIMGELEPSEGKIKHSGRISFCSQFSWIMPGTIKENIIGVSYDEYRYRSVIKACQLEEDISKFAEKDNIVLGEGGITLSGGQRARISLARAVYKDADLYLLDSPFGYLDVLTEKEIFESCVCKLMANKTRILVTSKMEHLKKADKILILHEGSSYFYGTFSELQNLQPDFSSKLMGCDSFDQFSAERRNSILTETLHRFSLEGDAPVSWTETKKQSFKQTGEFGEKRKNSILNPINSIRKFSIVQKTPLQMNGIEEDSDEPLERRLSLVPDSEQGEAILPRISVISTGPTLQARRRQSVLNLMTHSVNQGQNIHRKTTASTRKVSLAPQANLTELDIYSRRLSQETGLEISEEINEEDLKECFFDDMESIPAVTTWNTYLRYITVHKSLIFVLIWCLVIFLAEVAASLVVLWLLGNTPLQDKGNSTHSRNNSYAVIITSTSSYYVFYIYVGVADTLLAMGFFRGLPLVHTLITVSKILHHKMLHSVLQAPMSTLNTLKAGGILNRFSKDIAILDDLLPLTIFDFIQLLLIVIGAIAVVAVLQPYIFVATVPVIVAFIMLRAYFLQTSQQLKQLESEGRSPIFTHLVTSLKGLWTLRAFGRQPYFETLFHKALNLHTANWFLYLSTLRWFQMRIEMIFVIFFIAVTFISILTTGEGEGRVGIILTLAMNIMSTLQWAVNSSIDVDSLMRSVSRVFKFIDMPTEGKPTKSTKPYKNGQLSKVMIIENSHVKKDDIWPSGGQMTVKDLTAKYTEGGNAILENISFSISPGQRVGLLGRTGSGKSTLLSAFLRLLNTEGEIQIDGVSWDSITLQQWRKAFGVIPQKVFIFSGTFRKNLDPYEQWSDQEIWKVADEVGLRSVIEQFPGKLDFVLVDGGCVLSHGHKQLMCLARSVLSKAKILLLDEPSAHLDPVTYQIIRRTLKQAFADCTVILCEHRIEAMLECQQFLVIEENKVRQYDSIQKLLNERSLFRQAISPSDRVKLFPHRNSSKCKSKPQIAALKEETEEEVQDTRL
Experiment: Cell Surface Expression-Horse Radish Peroxidase (CSE-HRP) Assay;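 also: co-corrector chromenyl benzoic acid corrector at 2 or 3 µM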
Format: cell-based
Details: test compound with co-corrector; read-out: EC50 (with co-corrector)
pEC50: −log10 of the molar value.

{"molecule": "Cc1cnc(N(C)C)c(C2(C(=O)NS(=O)(=O)c3cccc4ncccc34)CC2)c1 [GII-41]", "pEC50": "5.00 to 5.52"}
{"molecule": "COc1cnc(OC(C)C)c(C2(C(=O)NS(=O)(=O)c3cccc4nc(C)ccc34)CC2)c1 [Example GI-76]", "pEC50": "> 5.52"}
{"molecule": "CCc1cnc(OC(C)C)c(C2(C(=O)NS(=O)(=O)c3cccc4nc(C)ccc34)CC2)c1 [Example GI-40]", "pEC50": "> 5.52"}
{"molecule": "COc1ccc(C2(C(=O)NS(=O)(=O)c3cccc4ccccc34)CC2)c(C)n1 [GII-19]", "pEC50": "5.00 to 5.52"}

Hello, the source for this data is patent US10829473B2, in case you need it.
